# target_desc: pooled human IgG (human IgG1, 2, 3 and 4)
endpoint: Enzyme Activity Endpoint Assay: Fab′2 (ng/µL)

| protein | endpoint | endpoint_value |
| --- | --- | --- |
| PRT-584 (protein) MANQEIRYSEETPKTITSVWTKGVTPPTNFIYNEDVLHAPYIANQGWYDITKTFNGKDDLLCGAATAGNMLHWWFDQNKEQIERYLKKHPEKQKINFNGEQMFDVKEAIDTKDSQTNSKLFEYFKDKAFPYLSTKHLGVFPDHVIDMFINGYRLSLTNHGPTPVKRQTKDPRGGIFDAVFTRGDQSKLLTSRHDFKEKTLNEISDLIKQELTEGKALGLSHTYANVRINHVINLWGADFNAEGNLEAIYVTDSDSNASIGMKKYYVGVNSAGKVAISAKEIEGDNIGAQVLGLFTLSTGQDIWEQTNLEHHHHHH | Enzyme Activity Endpoint Assay: Fab′2 | 552 |
| PRT-575 (protein) MANQEIRYSEETPKTITSVWTKGVTPPTDFIYNEDVLHAPYIANQGWYDITKTFNGKDDLLCGAATAGNMLHWWFDQNKEQIERYLKKHPEKQKINFNGEQMFDVKEAIDTKDSQTNSKLFEYFKDKAFPYLSTKHLGVFPDHVIDMFINGYRLSLTNHGPTPVKEQTKDPRGGIFDAVFTRGDQSKLLTSRHDFKEKTLKEISDLIKQELTEGKALGLSHTYANVRINHVINLWGADFDAEGNLEAIYVTDSDSNASIGMKKYYVGVNSAGKVAISAKEIEGDNIGAQVLGLFTLSTGKDIWEQTNLEHHHHHH | Enzyme Activity Endpoint Assay: Fab′2 | 254 |
| PRT-451 (protein) MVTSVWTKGVTPPANFRKIVDGNIAYYHAPYKANQGWYDITKTFNGKDDLLCGAATAGNMLHWWFDQNKDQIEAYLKEHPEKQKINFNGEQMFDVKEAIDTKDDQTNSKLFEYFKEKAFPYLSTKHLGVFPDHVLDMFINGYRLSLTNHGPTPVKEGSKDPRGGIFDAVFTRGDQSKLLTSRHDLKNKTLKEISDLIKQELTEGKALALSHTYANVRINHVINLWGADFDSNGNLEAIYVTDSDSNASIGMKKYFVGVNSAGKVAISAKEIEDDNIGAQVLGLFTLSTGQDIWNQTNLEHHHHHH | Enzyme Activity Endpoint Assay: Fab′2 | 1250 |
| PRT-486 (protein) MVTSVWTKGVTPPTDFIKGEDVFHAPYKAGQGWYDITKTFNGKDNLLCGAATAGNMLHWWFDQNKDQIERYLKEHPEKQKIIFNNQELFDLKAAIDTKDSQTDSKLFEYFKEKAFPYLSTKHLGVFPDHVLDMFINGYRLSLTNHGPTPVKEGSKDKRGGIFDAVFTRGVQSKLLTSRHDFKEKTLKEISDLIKQELTEGKALGLSHTYANVRINHVINLWGADFDSEGNLKAIYVTDSDTNASIGMKKYFVGVNSAGKVAISAKEIKEDNIGAQVLGLFTLSTGQDIWNQTNLEHHHHHH | Enzyme Activity Endpoint Assay: Fab′2 | 145 |
